This collection of values is drawn from the supplement of paper PMC11865577.

Documented pull-down binding Z-score across a set of sequences
test system: TO-3-N3 (biotin conjugate); test: pull-down binding Z-score (relative to library population); higher = stronger binding; conditions: RNA library: Library-2

UCUCUAAUGAGA    -0.823

-- ask Give recorded pull-down binding Z-score. UAUAUGCCUUAUUUCUUUACUUUAUUGCUACAAUUGUGUACUUUUACUAGAAGUACAAAUUCUAGAAUUAAAGCAUCUA [DMSMaPseq_invitro_SARS-CoV-2_Motif_128]
-- reply -0.237

-- ask Give recorded pull-down binding Z-score. GCGCCGCCAGAAACUGGCAGCGC [mismatch-CA]
-- reply 0.381

-- ask Give recorded pull-down binding Z-score. CAGCCUUGACAACAGGCUG [hsa-mir-3130-2]
-- reply 0.503

-- ask Give recorded pull-down binding Z-score. GGCCACCCAGGGAGUAAGUAGCC [hsa-mir-4480]
-- reply 2.34

-- ask Give recorded pull-down binding Z-score. GGGCUCGUGAUGGCUGGUGGGCCC [hsa-mir-345]
-- reply -0.497

-- ask Give recorded pull-down binding Z-score. UGCGUUAGGAUUUCUGUAUCAUCCUCCUAACGCA [hsa-mir-3166]
-- reply 0.576

-- ask Give recorded pull-down binding Z-score. UGUUCAGUGGGAUUUGGAGA [hsa-mir-8061]
-- reply 0.542

* * *

tested on: TO-N3-2 (biotin conjugate); assay: pull-down binding Z-score (relative to library population); higher = stronger binding; conditions: RNA library: Library-2
READOUT_NAME: pull-down binding Z-score
Answer as a number with no unit attached.

Below: 3 sequences and their reported pull-down binding Z-score.
GGAGUCCUCUAGACACC [hsa-mir-6510]    -0.175
GUCAAAGUGACUAUUGAC [SHAPE_invitro_SARS-CoV-2_Motif_373]    -0.385
AUGGUCUUUGUUCUUUUUUUUGUAUGAAAAUGCCUUUUUACCUUUUGCUAUGGGUAUUAUUGCUAU    -0.569

-- ask Give recorded pull-down binding Z-score. AGUUGAACACUUGUUGGGACAACCU [hsa-mir-4421]
-- reply 0.711

-- ask Give recorded pull-down binding Z-score. CGAGACACAGAAACAGACACCUGCCCUCGA [hsa-mir-151b]
-- reply 1.69

-- ask Give recorded pull-down binding Z-score. GCAGGCCGUGAACUCGUCGAGCUGCGCGUGCGGCCGGUGCUCA [hsa-mir-1199]
-- reply 2.02

-- ask Give recorded pull-down binding Z-score. "GCACACUAGAACCAGAAUAUUUCAAUUCAGUGUGU"
-- reply -1.18

-- ask Give recorded pull-down binding Z-score. "UCCUUACAUGGA"
-- reply -1.16

* * *

test system: TO-3-N3 (biotin conjugate); assay: pull-down binding Z-score (relative to library population); higher = stronger binding; conditions: RNA library: Library-2
# class assignment by measured pull-down binding Z-score: class 0 (below -0.6), class 1 (-0.6 to below -0.2), class 2 (-0.2 or more)

# example entries with known answers
AGUUUACGCCCUGACACACGUUAUGUGCUCAUGGAUGGCU    class 0
UGCCCUAGCGGCU [hsa-mir-4268]    class 1
CUCAGAGUAGAAAUUUACAAGAAUUUAAACCCAGGAG [DMSMaPseq_invitro_SARS-CoV-2_Motif_359]    class 0
UUUUGCAGUUGAAAGUAAUGGCAAAG [hsa-mir-548ao]    class 1

-- ask Which bin, given its pull-down binding Z-score, does GCUGCACUGUCUCCGUCUGCGG [hsa-mir-4519] occupy?
-- reply class 1

-- ask Which bin, given its pull-down binding Z-score, does UCUUCCCAGAGUCAGGAAAA [hsa-mir-320c-1] occupy?
-- reply class 2

-- ask Which bin, given its pull-down binding Z-score, does "AUGUACAUCUUCUUUGCAUCAUUUUAUUAUGUAUGGAAAAGUUAUGUGCAU" occupy?
-- reply class 0

-- ask Which bin, given its pull-down binding Z-score, does CUGGGCCAUAAGGACCAG [IAV_invivo_NP_5_Motif_20+IAV_invivo_NP_5_Motif_20] occupy?
-- reply class 2

-- ask Which bin, given its pull-down binding Z-score, does AGUCCUGUAAUUAGAUCUCAGGACU [hsa-mir-625] occupy?
-- reply class 0

-- ask Which bin, given its pull-down binding Z-score, does CUUCUUGCAUGUGACUUAUGUCCCUGCACAAGAAAAG [SHAPE_invitro_SARS-CoV-2_Motif_449] occupy?
-- reply class 1

-- ask Which bin, given its pull-down binding Z-score, does CUGCACUGUUAGCGGGUACAAUCACUUCUGGUUGGACCUUUGGUGCAG [SHAPE_invitro_SARS-CoV-2_Motif_437] occupy?
-- reply class 1

-- ask Which bin, given its pull-down binding Z-score, does UUUACCAUUACUUUCAAUGGCAAA [hsa-mir-548a-3] occupy?
-- reply class 0

-- ask Which bin, given its pull-down binding Z-score, does AUUCUGGACACCAG [hsa-mir-147b] occupy?
-- reply class 2

-- ask Which bin, given its pull-down binding Z-score, does CUGUCAUGGAAGCAAGUACUGGCAG [IAV_invivo_PA_3_Motif_16+IAV_invivo_PA_3_Motif_16] occupy?
-- reply class 2

-- ask Which bin, given its pull-down binding Z-score, does GCUGGAGUAAGGGCACGCCCGGGGCUGC [hsa-mir-4758] occupy?
-- reply class 2

-- ask Which bin, given its pull-down binding Z-score, does UUGAAUCACACACACAUUUCAA [hsa-mir-4803] occupy?
-- reply class 1

-- ask Which bin, given its pull-down binding Z-score, does AAGUCCGGCUCCAGAACCUGGACACCGCUCAG [hsa-mir-4638] occupy?
-- reply class 2
